# SYSTEM UNDER TEST: Human NK1 Receptor (Homo sapiens, UniProt P25103)
# Construct: endogenous in cells; host or cells: Human lymphoma IM9 cells (whole cells)
# Sequence (P25103 whole entry): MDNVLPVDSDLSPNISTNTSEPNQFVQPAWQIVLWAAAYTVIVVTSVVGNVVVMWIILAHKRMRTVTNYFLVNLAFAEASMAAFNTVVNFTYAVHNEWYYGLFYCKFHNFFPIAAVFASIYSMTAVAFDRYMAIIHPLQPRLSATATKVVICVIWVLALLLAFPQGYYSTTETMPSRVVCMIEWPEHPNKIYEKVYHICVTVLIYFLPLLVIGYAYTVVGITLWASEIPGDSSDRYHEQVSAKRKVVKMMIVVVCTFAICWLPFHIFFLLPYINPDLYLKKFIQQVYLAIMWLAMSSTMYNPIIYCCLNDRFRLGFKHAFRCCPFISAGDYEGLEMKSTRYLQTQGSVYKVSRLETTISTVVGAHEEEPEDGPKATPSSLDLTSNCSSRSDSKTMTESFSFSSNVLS
# PROCEDURE DETAILS: In Vitro Human NK1 Receptor Binding Assay ([125I]Bolton-Hunter substance P displacement, IM9 cells)
# RUN CONDITIONS: human NK1 receptor, IM9 cells, [125I]Bolton-Hunter substance P; read-out: IC50 (nM) hNK1
PARAMETER MEASURED: IC50 (nM)

Use the examples below as a reference point.
CC(Cc1c[nH]c2ccccc12)(NCc1cc2ccccc2o1)C(=O)NCc1ccc(OC(F)(F)F)cc1 (centres unmarked) [compound 66]	3440
CC(NC(=O)C(C)(Cc1c[nH]c2ccccc12)NCc1cc2ccccc2o1)c1cc(Cl)sc1Cl (centres unmarked) [compound 122]	442
CC(Cc1c[nH]c2ccccc12)(NCc1cc2ccccc2o1)C(=O)NCc1cccc(Br)c1 (centres unmarked) [compound 72]	18
CC(Cc1c[nH]c2ccccc12)(NCc1cc2ccccc2o1)C(=O)NCc1ccc([N+](=O)[O-])cc1 (centres unmarked) [compound 119]	89

a. CC(Cc1c[nH]c2ccccc12)(NCc1cc2ccccc2o1)C(=O)NCc1ccc(N)cc1 (centres unmarked) [compound 62]
b. CC(Cc1c[nH]c2ccccc12)(NCc1cc2ccccc2o1)C(=O)NC1(CN2CCCCC2)CCCCC1 (centres unmarked) [compound 89]
[ask] // max by IC50 over [ a , b ] Please identify the chosen entry by its label.
[reply] b
